Ref: PubChem BioAssay AID652257

# key: entry, value: inhibition
molecular target: Protein arginine N-methyltransferase 1 (Homo sapiens); assay: human PRMT1 activity-probe blockers – biochemical, fluorescence polarization, primary screen (AID 652257); settings: recombinant PRMT1, activity-based probe fluorescence polarization; at 2.79 µM; hits give high values
Hit rate of the full screen: of about 370,000 compounds, about 4,800 (1.3%) were called active. Shown is part of a subset that was picked to be rich in actives.

>  <COMPOUND>
O=C(CSc1cccc[n+]1[O-])NCCCc1ccccc1

>  <inhibition / %>
-1.06

$$$$
>  <COMPOUND>
CCN(C(=O)CSc1cccc[n+]1[O-])c1ccccc1

>  <inhibition / %>
-2.83

$$$$
>  <COMPOUND>
Cc1cc(C)c(S(=O)(=O)NN=C2c3ccccc3[C@H]3Cc4csc[n+]4[C@@H]23)c(C)c1

>  <inhibition / %>
52.5

$$$$
>  <COMPOUND>
CC(=O)c1cc(-c2ccc3ccccc3c2)c(=O)n2c1CCC2

>  <inhibition / %>
0.08

$$$$
>  <COMPOUND>
CNC(=O)NC(=O)CSc1nnc(-c2ccc(F)cc2)n1CC1CCCO1 (stereo not given)

>  <inhibition / %>
2.71

$$$$
>  <COMPOUND>
Nn1c(SCC(=O)N2c3ccccc3Sc3ccccc32)nnc1-c1n[nH]c2c1CCC2

>  <inhibition / %>
5.44

$$$$
>  <COMPOUND>
O=C(C1CCCN1S(=O)(=O)c1ccccc1)N1CCc2ccccc2C1 (stereo not given)

>  <inhibition / %>
-6.97

$$$$
>  <COMPOUND>
COc1ccc(N2C(=O)/C(=C\c3ccco3)N=C2SCC(N)=O)cc1Cl

>  <inhibition / %>
25.5

$$$$
>  <COMPOUND>
CN1[C@H](Cc2ccccc2)COc2cccc(N3CCSCC3)c2S1(=O)=O

>  <inhibition / %>
6.45

$$$$
>  <COMPOUND>
Cc1ccc(-n2c(SCC(=O)Nc3ccc(S(=O)(=O)Nc4nccs4)cc3)nnc2-c2ccncc2)cc1

>  <inhibition / %>
-1.23

$$$$
